// data source = the supplement of paper PMC13380429

System: HepG2
Assay: cell viability relative to DMSO; higher = less toxic
Details: 72 h; 10 nM
observable: cell viability (%)
Unit % implied. Number only.

# molecule, assayedTarget, observable, testValue
records = [
    ("CC(C)[C@H](N)C(=O)OCC(CO)OCn1cnc2c(=O)nc(N)[nH]c21 (mixture of isomers)", "HepG2", "cell viability", 95),
]

cell viability recorded for this molecule, `CC(C)(C)c1cc(C=C(C#N)C#N)cc(Br)c1O` , is 110

Reported cell viability of `CC(C)(C)OC(=O)N[C@H]1CCCCC/C=C\[C@@H]2C[C@@]2(C(=O)NS(=O)(=O)C2CC2)NC(=O)[C@@H]2C[C@@H](OC(=O)N3Cc4cccc(F)c4C3)CN2C1=O` : 104

cell viability reading for `CC1=C(C(=O)O)N2C(=O)[C@@H](NC(=O)[C@H](N)c3ccc(O)cc3)[C@H]2SC1` : 101

response.value for `CN1CCN(Cc2ccc(Nc3ncc(Cl)c(Nc4ccccc4S(=O)(=O)N(C)C)n3)cc2)CC1` (field: cell viability) = 109

Measured cell viability of Cc1ccccc1C(C(=O)NC1CCCCC1)N(C(=O)Cn1ccnc1C)c1cccc(F)c1 (configuration not stated) : 99.3

Noted for COc1ccc2c(c1)C(C(=O)N(Cc1ccc(N(C)C)cc1)c1ccc(C(C)C)cc1)CCC2 (configuration not stated) : its cell viability reads 109

Value of cell viability reported for the molecule CCCCCCCCCC(=O)OC1(c2ccc(Cl)cc2)CCN(CCCC(=O)c2ccc(F)cc2)CC1 [haloperidol-decanoate] is 108

Form: molecule = CCN(CC)C(=S)S [ditiocarb-sodium-trihydrate] ; cell viability = 97.9

Please fill in: cell viability reported for `O=C(O)c1cc(O)c2c(Cl)cc(Cl)cc2n1` = 99.3

Measured cell viability, `Cc1cc(C)cc(NC(=O)Cc2ccc(OC(C)(C)C(=O)O)cc2)c1` : 107

Lab book: cell viability of N#Cc1nn(-c2c(Cl)cc(C(F)(F)F)cc2Cl)c(N)c1[S+]([O-])C(F)(F)F (configuration not stated) noted as 109

# cell viability (molecule: `CCn1cnc(C(=O)NC)c1C(=O)NC` ) is 114

Note to self: cell viability recorded for CC(C)(Oc1ccc(Cl)cc1)C(=O)N1CSCC1C(=O)O (configuration not stated) [timofibrate] was 102

Entry under test: CC(=O)O[C@]1(C(C)=O)CC[C@H]2[C@@H]3C=C(C)C4=CC(=O)CC[C@@H]4[C@H]3CC[C@@]21C [nomegestrol-acetate] . Its cell viability was 97.1

In plain terms, `CNc1cc2[nH]c(=O)n(-c3ccc(NC(=O)NS(=O)(=O)c4ccc(Cl)s4)cc3)c(=O)c2cc1F` has a documented cell viability of 91.4

Consider `NC(=O)c1ccc(F)c2c1C[C@@H](N(C1CCC1)C1CCC1)CO2` . Its measured cell viability is 101

====

System: HepG2
Assay: relative viability EC50 (midpoint between 100% and the lowest measured viability); higher = less toxic
Conditions: 72 h
observable: relative viability EC50

For orientation, consider the following solved cases.
# compound, relative viability EC50
data = [
    ("O=[N+]([O-])c1cc(O)c(O)c([N+](=O)[O-])c1 [OR-486]", "> 10 µM"),
    ("C[C@@]1(c2cc(-c3cncnc3)c(F)cc2F)CCSC(N)=N1", "> 10 µM"),
    ("O=C(COP(=O)(O)O)[C@@H](O)[C@H](O)[C@H](O)COP(=O)(O)O [fosfructose]", "> 10 µM"),
    ("COc1cc2c(cc1OC)-c1c/c(=N\\c3c(C)cc(C)cc3C)n(C)c(=O)n1CC2 [trequinsin]", "> 10 µM"),
]

Item: CCCCCCCCCCCC(=O)O [lauric-acid] | relative viability EC50: > 10 µM

Documented relative viability EC50 of N[C@@H](Cc1cc(CP(=O)(O)O)cc(-c2ccccc2Cl)c1)C(=O)O [SDZ-220-581] : > 10 µM

Record O=c1sn(-c2cccc3ccccc23)c(=O)n1Cc1ccccc1 [tideglusib] . Reported relative viability EC50: > 10 µM

# relative viability EC50 of `CCCCCCCCc1ccc(-c2ccc(C(=O)O)cc2)cc1` = > 10 µM

# relative viability EC50 of Cc1cc(=O)[nH]c(=S)[nH]1 [methylthiouracil] = > 10 µM

====

Tested on: Vero E6
Experiment: cell viability relative to DMSO; higher = less toxic
Details: 72 h; 10000 nM
cell viability values by entry
Please state the figure in %; there is no need to write the unit.

These solved cases illustrate the format of a correct answer.
# molecule, assayedTarget, unitTag, testValue
rows = [
    ("CC1=C(C)C(=O)C(C(CCCCCC(=O)O)c2ccccc2)=C(C)C1=O (stereo unspecified)", "Vero E6", "%", 98.2),
    ("O=P1(N(CCCl)CCCl)NCCCO1 (stereo unspecified) [cyclophosphamide]", "Vero E6", "%", 94),
    ("NC(=O)c1ccc(N(C(N)=O)c2c(F)cccc2F)nc1-c1ccc(F)cc1F", "Vero E6", "%", 89.1),
    ("C[C@@H]1CN(Cc2ccc(F)cc2)[C@@H](C)CN1C(=O)c1cc2c(C(=O)C(=O)N(C)C)cn(C)c2cc1Cl", "Vero E6", "%", 85),
    ("CCCCOC(=O)c1ccc(N)cc1", "Vero E6", "%", 82.3),
    ("C[C@H](Nc1cc(-c2cnn(C)c2)cc(Nc2cnccn2)n1)c1ccc(F)cc1", "Vero E6", "%", 14.5),
    ("NCCCCN=C(N)N", "Vero E6", "%", 88.6),
    ("O[C@H]([C@H](O)[C@@H]1CO1)[C@H]1CO1 [dianhydrogalactitol]", "Vero E6", "%", 99.9),
    ("CC(C)(C)c1cc(C=C(C#N)C#N)cc(Br)c1O", "Vero E6", "%", 92.4),
    ("COc1ccccc1N1CCN(CC(O)COc2cc(OC)c(OC)c(OC)c2)CC1 (stereo unspecified)", "Vero E6", "%", 99.4),
]

molecule `CCCCCCCCc1ccc(-c2ccc(C(=O)O)cc2)cc1` , cell viability observed: 106

The molecule identified as `CC(C)(c1ccc(O)cc1)c1ccc(O)cc1` registered its cell viability at 88.6

Field cell viability (entry CC(C)(Oc1ccc(Cl)cc1)C(=O)N1CSCC1C(=O)O (stereo unspecified) [timofibrate] ) reads 105

Sample `COc1cc2c(NC3CCN(CC4CCCCC4)CC3)nc(N3CCCN(C(C)C)CC3)nc2cc1OCCCN1CCCCC1` ; cell viability observed: 50.9

The molecule identified as `CS(=O)(=O)c1cc(F)cc2c3c(n(Cc4ccc(Cl)cc4)c12)[C@@H](CC(=O)O)CC3` registered its cell viability at 91.9

Entry `NC[C@H]1CC[C@H](C(=O)O)CC1` ; cell viability = 103

The molecule listed as `COc1ccc2cc([C@H](C)C(=O)O)ccc2c1` has a reported cell viability of 100

Reported cell viability of `COc1cc(OC)c(C(=O)CCCCN2CCC3(CC2)NC(=O)NC3=O)cc1NS(=O)(=O)c1ccc(C(F)(F)F)cc1` : 99.7

Note to self: cell viability recorded for `C=CCN1CC[C@]2(C)c3cc(O)ccc3C[C@H]1[C@H]2C` was 107

Query `Cc1cc(O)c(C(C)C)cc1Cl` yields cell viability of 109

====

Test system: Calu-3
Experiment: cell viability relative to DMSO; higher = less toxic
Conditions: 72 h; 10000 nM
observable: cell viability (%)
Provide only the numeric value, understood in %.

# molecule, assayedTarget, observable, unitTag, testValue
records = [
    ("C[C@]12CCC(=O)C=C1CC[C@@H]1[C@@H]2[C@@H](O)C[C@@]2(C)[C@H]1CC[C@]2(O)C(=O)COC(=O)CCC(=O)O [hydrocortisone-hemisuccinate]", "Calu-3", "cell viability", "%", 95.9),
]

Lab book: cell viability of `Cc1coc2c1C(=O)C(=O)c1c-2ccc2c1CCCC2(C)C` noted as 101

// cell viability lookup, molecule = `c1ccc(Oc2cccnc2)cc1` , result: 106

The molecule identified as `CNC(=O)c1cc(Oc2ccc(NC(=O)Nc3ccc(Cl)c(C(F)(F)F)c3)c(F)c2)ccn1` registered its cell viability at 74.2

====

System: Calu-3
Test: cell viability relative to DMSO; higher = less toxic
Settings: 72 h; 10 nM
observable: cell viability (%)
Reply with just the number (in %).

Worked cases, answers included:
# compound, unitTag, testValue
measured = [
    ("Cn1cnc2c1c(=O)[nH]c(=O)n2C [theobromine]", "%", 90.3),
    ("CCCCCCCCCCC(=O)O[C@H]1CC[C@H]2[C@@H]3CCC4=CC(=O)CC[C@]4(C)[C@H]3CC[C@]12C [Testosterone (undecanoate)]", "%", 94.7),
    ("CCCCCCCCCC(=O)OC1(c2ccc(Cl)cc2)CCN(CCCC(=O)c2ccc(F)cc2)CC1 [haloperidol-decanoate]", "%", 105),
    ("C=CC1=C(C)c2cc3[nH]c(cc4nc(cc5[nH]c(cc1n2)c(C)c5CCC(=O)O)C(CCC(=O)O)=C4C)c(C)c3C=C [protoporphyrin-IX]", "%", 93.8),
]

Form field cell viability, entry COc1ccc2c(c1)C(C(=O)N(Cc1ccc(N(C)C)cc1)c1ccc(C(C)C)cc1)CCC2 (centres undefined) : 98.9

Measured cell viability of CC(=O)Oc1ccc(C(c2ccc(OC(C)=O)cc2)c2ccccn2)cc1 [bisacodyl] : 105

Note to self: cell viability recorded for `CNCCN(C)Cc1c[nH]nc1-c1ccc(O[C@H]2C[C@H](OCCC3CCOCC3)C2)cc1` was 97.3

Just so you know, measured cell viability for `C[C@@]1(c2cc(-c3cncnc3)c(F)cc2F)CCSC(N)=N1` came out at 104

Consider CC(C)(C)c1cc(C=C(C#N)C#N)cc(Br)c1O [AG-1024] . Its measured cell viability is 92.4

compound Cc1ccc2c(c1CCC(=O)O)CC[C@@H](NS(=O)(=O)c1ccc(Cl)cc1)C2 [terutroban] , cell viability observed: 85.6

// field: cell viability; key: Nc1c(CC(=O)O)cccc1C(=O)c1ccc(Br)cc1 [bromfenac] ; value = 97

// sample COC(=O)[C@H](Cc1ccccc1)NC(=O)[C@@H](N)CC(=O)O [aspartame] , its cell viability was 100

The recorded cell viability for entry NC(Cc1ccc(I)cc1)C(=O)O (stereo in doubt) [4-iodo-L-phenylalanine] equals 101

Notebook: CS(=O)(=O)c1cc(F)cc2c3c(n(Cc4ccc(Cl)cc4)c12)[C@@H](CC(=O)O)CC3 [laropiprant] , cell viability read as 95.4

Summary for this compound, C#CCN[C@@H]1CCc2ccccc21 [rasagiline] : cell viability is 96.3

// cell viability value for Cc1ccc(C)c(OCCCC(C)(C)C(=O)O)c1 [gemfibrozil] : 104

# cell viability (compound: CCCCN(CCCC)CCC(O)c1cc2c(Cl)cc(Cl)cc2c2cc(C(F)(F)F)ccc12 (centres undefined) [halofantrine] ) is 93.3

The compound O=C/C=C/c1ccccc1 [cinnamaldehyde] showed cell viability equal to 105

Item: O=C(O)c1cc(O)c2c(c1)C(=O)c1cccc(O)c1C2=O [rhein] | cell viability: 96.6
